Test system: HT29 colon
Test description: NCI tumour cell line growth inhibition, 48 h
So I've got a bunch of compounds here, and I need their TGI values.
Numbers only here, please. The scale is µM.

Please look up its TGI: CC(C)(C)OC(=O)NC(Cc1ccccc1)OCc1ccccc1 (stereo not drawn) 44.5

Return reported TGI; argument: COc1cc(N2C(=O)[C@H](O)C2c2ccc(SC)cc2)cc(OC)c1OC (stereo partly drawn) 0.0887

So what's the measured TGI for this one? CCOc1ccccc1C(=O)N1CCN(c2cc(Cl)cc(Cl)c2)CC1 2.29

Which value of TGI has been reported for CCC(CCCN)Nc1cc(OC)cc2c(C)ccnc12 (stereo not drawn) in the records? 28.6

Recorded TGI of CCCCCCCCCCCCCCCCCC1=NCCN1CCOC1=C(Cl)C(=O)c2ccccc2C1=O , please. 6.13

###

Test system: SK-MEL-5 melanoma
Test description: NCI tumour cell line growth inhibition, 48 h
If the reported TGI equals or exceeds 6 µM, assign 1 (yes). If not, assign 0 (no).

Would you say CC(C)NCCCn1c(Sc2cc3c(cc2I)OCO3)nc2c(N)ncnc21 shows TGI at minimum 6 µM? 1 (yes)

Form field: TGI at least 6 µM? Entry: COc1c(Br)cc2c(c1OC)C(Br)CCC(Br)(Br)C2=O (stereo unspecified) 1 (yes)

Would you say N#CC(C#N)=C1NC(=O)CC(=O)N1 shows TGI at minimum 6 µM? 1 (yes)

Reported TGI reaches at least 6 µM for O=S(=O)(Nc1cc(Sc2cccc3cccnc23)c(O)c2ccccc12)c1ccc(F)cc1 ? 0 (no)

Please check the record O=S1(=O)OCCOS(=O)(=O)C1(F)Br and state if its TGI is at or above 6 µM. 1 (yes)

Reported TGI reaches at least 6 µM for O=C(NNCC(O)COc1ccccc1)c1ccccc1 (stereo unspecified) ? 1 (yes)

Textbook exercise: given the entry Fc1ccc(/C=N/n2c(-c3ccc(F)c(Cl)c3)nn(CNc3ccccc3C(F)(F)F)c2=S)cc1 , state whether its TGI is greater than or equal to 6 µM. 1 (yes)

# check: TGI of COc1cc2nc(N3CCCC3)nc(NCCc3ccccc3)c2cc1OC is greater than or equal to 6 µM 0 (no)

Reported TGI reaches at least 6 µM for COc1cc2c(cc1OCCCn1c(-c3ccccn3)nc3ccccc31)N=C[C@@H]1CCCN1C2=O ? 0 (no)

Kindly determine if TGI recorded for C/C(=N\Nc1ccc([N+](=O)[O-])cc1[N+](=O)[O-])c1sc(-n2nc(-c3ccccc3)cc2-c2ccccc2)nc1C is above or exactly 6 µM. 1 (yes)

Determine whether measured TGI meets or exceeds 6 µM for COc1ccc(-c2nc(Nc3cc(C)[nH]n3)c3ccccc3n2)cc1 1 (yes)

Would you say N#C[C@H](OC1OC(COC2OC(CO)C(O)C(O)C2O)C(O)C(O)C1O)c1ccccc1 (stereo partly specified) shows TGI at minimum 6 µM? 1 (yes)

Does TGI meet or surpass 6 µM for CC#CCC1CCC(OCC)=CC1=O (stereo unspecified) ? 1 (yes)

Given C#C[C@]1(O)CCCC2=CC(=O)CC[C@@]21C , state whether its TGI is at least 6 µM. 1 (yes)

Confirm if TGI reported for the molecule C=CC1(NC(=O)c2ccccc2)CCC(C(C)(C)C)CC1 (stereo unspecified) is 6 µM or above. 1 (yes)

Dear colleague, could you confirm whether O=C(CCCN1CCC2(CC1)CC(c1ccccc1)OC2=O)c1ccc(F)cc1 (stereo unspecified) has TGI at or above 6 µM? 1 (yes)

// inclusive: TGI at least 6 µM? input: COc1cc(/C=C/c2nc(NC(=S)Nc3ccccc3)nnc2C)cc(OC)c1OC 1 (yes)

For this molecule, is measured TGI 6 µM or higher? CC(C)C[C@H](NC(=O)CNC(=O)c1cc(Cl)ccc1Cl)B1OC(=O)CC(CC(=O)O)(C(=O)O)O1 (stereo partly specified) 0 (no)

Check if TGI >= 6 µM (inclusive). Item: Cc1ccc(NC(Nc2ccc(C)cc2C)=C(/C=C(\Cl)[N+](=O)[O-])[N+](=O)[O-])c(C)c1 1 (yes)

Entry NC(N)=NCCCC(NC(=O)c1cccc2c(=O)c3ccccc3[nH]c12)C(=O)O (stereo unspecified) : is its TGI no less than 6 µM? 1 (yes)

Record COc1cc(C(=O)C/C(CCC(=O)Nc2ccccc2[N+](=O)[O-])=N\NC(N)=O)ccc1O ; criterion: TGI no lower than 6 µM. Met? 1 (yes)

Cited source: PubChem BioAssay (NCI)
